assay: NCI Yeast Anticancer Drug Screen. Data for the bub3 strain (AID 167); details: S. cerevisiae bub3 mutant strain, at 50.0 µM, stronger effect = higher value
The panel holds about 79,000 compounds, 15% with a hit somewhere; the sample as a whole holds those more often.
measured.parameter: growth inhibition (%)
The reply should contain only the number, in %.

query: Any idea what growth inhibition was measured for Cc1ccccc1Nc1nc(-c2ccccc2)nc(N)c1N=O ?
result: 45

query: What growth inhibition value was documented for this compound, C/C(=N\NC(=S)N1CC(C)OC(C)C1)c1ncccn1 (configuration not stated) ?
result: 99.3

query: Reported growth inhibition, compound CCOC(=O)Nc1cc2c(c(N)n1)N=C(c1ccccc1)CN2 : ____
result: 47.1

query: Could you tell me which growth inhibition is on file for CCCCC(O)(c1ccccc1)C(O)(c1ccccc1)c1c(F)c(F)c(F)c(F)c1F (configuration not stated) ?
result: 98.6

query: Would you kindly share the measured growth inhibition for CCCCNC(=S)NC1OC(CO)C(O)C(O)C1O (configuration not stated) ?
result: 99.2

query: Please report the recorded growth inhibition for Cc1ccc(C(=O)C(CN(C)C)CN(C)C)cc1 .
result: 88.7

query: // lookup growth inhibition for CC(=O)Nc1ccc(-c2ccccc2)cc1[N+](=O)[O-]
result: 44.4

---

Task for the reader: assign each of the following compounds its reported growth inhibition.
assay: NCI Yeast Anticancer Drug Screen. Data for the sgs1 mgt1 strain (AID 161);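 further: 0% = growth of cultures given vehicle only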; conditions: S. cerevisiae sgs1 mgt1 strain, at 5.0 µM (retest, dose inferred, filed as 0.5), stronger effect = higher value
The panel holds about 79,000 compounds, 15% with a hit somewhere; the sample as a whole holds those more often.
API: value field is a number in %; no unit string.

query: For COc1ccc(C2=CC(=O)C=CC2=O)cc1 , what is its reported growth inhibition?
result: 14

query: Any idea what its growth inhibition is? The compound is COc1ccc(C2C3=C(CCCC3=O)Oc3cc4c(cc32)OCO4)c(OC)c1 (stereo not drawn)
result: 6

query: Suppose we examine the compound CC[n+]1c(/C=C/c2ccc(N(C)C)cc2)ccc2ccccc21 ; what growth inhibition value has been reported?
result: -2

---

experiment: NCI Yeast Anticancer Drug Screen. Data for the cln2 rad14 strain (AID 165);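 further: 0% = growth equal to vehicle treated cultures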; conditions: S. cerevisiae cln2 rad14 strain, at 5.0 µM (retest, dose inferred, filed as 0.5), stronger effect = higher value
This is part of a sample that, as a whole, favours compounds with a hit. Of some 79,000 tested, about 15% had one in any assay. Calls of active or inactive are those of the source. Rule as the data show it: active = growth inhibition above about 70%; inactive = the rest.
Task for the reader: assign each of the following molecules its reported growth inhibition.

query: Endpoint output: growth inhibition of BrCc1ccc([Si](c2ccccc2)(c2ccccc2)c2ccc(CBr)cc2)cc1 . Value?
result: -1% (inactive)

query: What value of measured growth inhibition is listed for O=C(c1ccccc1)c1ccc2cccc(O)c2n1 ?
result: 5% (inactive)

query: Recorded growth inhibition of CC(C)c1ncc(-c2ccccc2)cc1-c1ccccc1 , please.
result: 2% (inactive)

---

assay: NCI Yeast Anticancer Drug Screen. Data for the mlh1 rad18 strain (AID 175); details: S. cerevisiae mlh1 rad18 strain growth inhibition; at 50.0 µM; stronger effect = higher value
The panel holds about 79,000 compounds, 15% with a hit somewhere; the sample as a whole holds those more often.
Task for the reader: assign each of the following compounds its reported growth inhibition.
Entry rule: numbers only, all in %.

query: Reported growth inhibition for Cn1c2ccccc2c2cc3cnccc3cc21 : what is it?
result: 98.7

query: Can you look up the measured growth inhibition of CCOC(=O)/C(C)=N/Nc1cc(Cl)ccc1O for me?
result: 88.8

query: What growth inhibition value was documented for this compound, Nc1ccc(S(=O)(=O)Nc2cc(Cl)cc(Cl)c2)cc1 ?
result: 98.2

query: Fill in: growth inhibition of CSc1cc(N)nc(N)n1 is ___
result: 93.4

query: Would you mind telling me what growth inhibition value was observed for NNc1c(F)c(F)c(-c2c(F)c(F)c(NN)c(F)c2F)c(F)c1F ?
result: 86.8

query: Which growth inhibition value is on record for NNc1ccc2ccccc2n1 ?
result: 93.4

query: Recorded growth inhibition for O=C(O)c1ccc2c(Br)ccc3c2c1CC3 , please?
result: 68.6

query: What measured growth inhibition goes with c1ccc2nc(C[n+]3cccc4ccccc43)ccc2c1 ?
result: 97.1

query: Give its growth inhibition value. Item: Cc1ccc2c(c1)C(O)(c1ccccc1)C(c1ccccc1)C(c1ccccc1)O2 (stereo not drawn)
result: 93.6

query: Entry under review: O=C(O)CC1c2ccccc2-c2ccccc21 . Reported growth inhibition?
result: 79.3

query: Returns the measured growth inhibition for the input compound. Input: Cc1ccc(S(=O)(=O)NCCCOS(=O)(=O)c2ccc(C)cc2)cc1
result: 45.9

query: Can you look up the measured growth inhibition of Oc1ccc(SCc2cc(O)ccc2O)cc1 for me?
result: 82.1

query: Would you mind telling me what growth inhibition value was observed for Cc1cc(Br)c(P(=O)(O)O)cc1[N+](=O)[O-] ?
result: 64

query: Recorded growth inhibition of CCCC(C(=O)OCCNC1CCCCC1)c1ccccc1 (stereo not drawn) , please.
result: 55.2

query: Dear colleague, I am looking for the recorded growth inhibition of the following compound: SCCCCCCCCCCS
result: 99.1

query: Which growth inhibition reading was recorded for the compound Cn1c(=O)c2c(nc(OCC(C)(C)C)n2C)n(C)c1=O ?
result: 23.8

query: State the recorded growth inhibition for this entry: COc1ccc(C2NCc3c(sc4c3CCCC4)-n3cccc32)cc1 (stereo not drawn)
result: 77

query: Need growth inhibition of CCOC(=O)N1C2C=CC(=O)C(C=C2)N1C(=O)OCC (stereo not drawn) , thanks.
result: 94.3

query: Entry under review: CC/C(=C(\CC)c1ccc(O)c(CN(CCO)CCO)c1)c1ccc(O)cc1 . Reported growth inhibition?
result: 73.6

query: Using the record for CCCCCOC(=O)c1ccc(O)cc1 , report its growth inhibition.
result: 15.4

query: # query: growth inhibition of entry O=C(C(Cl)Cl)N(O)c1ccccc1OCc1ccccc1
result: 89

query: Given the compound O=C(c1ccccc1)N1CCN(c2cccc(Cl)c2)CC1 , what is its reported growth inhibition?
result: 16.3

query: growth inhibition lookup needed for Nc1cc(Br)c2cccnc2c1O , thanks.
result: 95.7

---

assay: NCI Yeast Anticancer Drug Screen. Data for the mlh1 rad18 strain (AID 175); conditions: S. cerevisiae mlh1 rad18 strain growth inhibition; at 50.0 µM (retest, dose inferred, filed as 5.0)
Compounds without any hit were thinned out: in the full panel of roughly 79,000, 15% have a hit. Active and inactive are the calls of the source. No stated cut-off is given here; in the data, active means growth inhibition above about 70%; inactive means the rest.
Respond using exactly one of the listed classes: active, inactive

query: Which outcome was entered for the compound Fc1ccc(C2(CCCN3CCc4[nH]c5cc(F)ccc5c4C3)OCCO2)cc1 in this test?
result: active

query: What outcome does the record of this test show for CC(=O)N1C(c2[nH]c3ccccc3c2Cc2ccccc2)CCN1c1ccccc1 (stereo not given) ?
result: active

query: Check the results log: what was the call for O=C(Oc1c(Cl)c(Cl)c(Cl)c(Cl)c1Cl)c1ccc(Cl)cc1 ?
result: active

query: Record request — test call for N/C(=N\OC1(c2ccccc2)OC(=O)C(=O)/C1=C(/O)c1ccccc1)c1ccccc1 (stereo not given)
result: active

query: GET /call?item= COc1cc(-c2ccc(-[n+]3nc(Cc4ccc5c(c4)OCO5)nn3-c3ccccc3)c(OC)c2)ccc1-[n+]1nc(Cc2ccc3c(c2)OCO3)nn1-c1ccccc1 returns the recorded outcome of this test.
result: active

query: What is the recorded call for this compound in the test? CCOC(=O)C(=Cc1ccc(C(=O)OC)cc1)C(=O)OCC
result: active

query: // return assay outcome for Cn1c(=O)c2c(nc(CCCCCCCc3nc4c(c(=O)n(C)c(=O)n4C)n3C)n2C)n(C)c1=O
result: inactive

query: Each compound tested received a call. Report the one for CC(C)(CN1CCCCC1)C(=O)CC(SCCS(=O)(=O)O)c1ccc(Cl)c(Cl)c1 (stereo not given) .
result: active

query: Called result for CC1(C)[C@@H]2CC[C@]1(C)[C@@H](OC(=O)CSC#N)C2
result: active

query: In this assay, the call recorded for Cc1cccc(C)c1NC(=O)CCc1nnc(N)n1N was what?
result: inactive

---

Assay: NCI Yeast Anticancer Drug Screen. Data for the sgs1 mgt1 strain (AID 161);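 further: 0% = growth of cultures given vehicle only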
Conditions: S. cerevisiae sgs1 mgt1 strain, at 5.0 µM (retest, dose inferred, filed as 0.5), stronger effect = higher value
Protocol: Growth inhibition of yeast strains with defined genetic alterations is measured as a screen for potential anti-cancer activity. Selected strains with alterations in DNA damage repair or cell cycle control were exposed to compounds and growth inhibition was measured relative to vehicle treated controls. The strain used in this assay is sgs1 mgt1
The panel holds about 79,000 compounds, 15% with a hit somewhere; the sample as a whole holds those more often.
Assignment: determine reported growth inhibition for the given compounds.
The reply should contain only the number, in %.

query: Give the measured growth inhibition of Cc1cc(NC(=S)SCc2ccc3c(c2)OCO3)ccc1Br .
result: 54

query: Request the reported growth inhibition associated with OC(OC/C(I)=C(/I)COC(O)C(Cl)(Cl)Cl)C(Cl)(Cl)Cl (stereo not given)
result: -2

query: Bench note: what growth inhibition did CCOC(=S)SSC(=S)NCCNC(=S)SSC(=S)OCC show?
result: 13

query: Can you share its growth inhibition? I mean this compound: O=C(Nc1cccnc1)c1ccc(CSc2ccc(Cl)cc2)o1
result: 48

query: Item COc1cc(C)c2sc3ccccc3c(=O)c2c1NCCCN(C)C has what recorded growth inhibition?
result: -2

query: Would you kindly share the measured growth inhibition for COC(=O)C1c2cc3c(c(O)c2CCC1(C)O)C(=O)c1c(O)cc2c(c1C3=O)OC1OC2(C)C(O)C(N(C)C)C1O (stereo not given) ?
result: 12

query: I have this compound here, c1ccc(-c2c3ccccc3cc3ccc4ccccc4c23)nc1 , and I need its recorded growth inhibition.
result: 0

query: Form field: reported growth inhibition of CCCCCCCCCCCCCC/[N+]([O-])=C/c1ccc([N+](=O)[O-])o1
result: 8

query: Item NCCC1=CCCCC1 has what recorded growth inhibition?
result: 2

query: For the compound CN(Cc1cc(Cl)cc(Cl)c1)CC(C(=O)c1ccccc1)c1ccccc1 (stereo not given) , what growth inhibition is on record?
result: 57
